Test system: SR leukemia
Test: NCI tumour cell line growth inhibition, 48 h
testReadout: TGI

1. COc1ccc(-c2nnc(COc3ccc(NC(=O)Nc4cc(C(F)(F)F)cc(C(F)(F)F)c4)cc3F)o2)cc1    5.95 µM
2. CN1CCN(CCCn2c(=O)c3sc4ncccc4c3n3nnc(-c4ccccc4)c23)CC1    2.57 µM
3. O=[N+]([O-])C(/C=C(\Cl)n1nnc2ccccc21)=C(/Cl)n1nnc2ccccc21    > 100 µM
4. CCOC(=O)Cn1c(=O)c2nc(SC)sc2n(-c2ccccc2)c1=O    > 100 µM
5. CO[C@H]1/C=C(/C)CCC[C@H](C)[C@H](O)[C@@H](C)C(=O)C(C)(C)[C@@H](O)CC(=O)O[C@@H]1/C(C)=C/c1csc(C)n1    > 58.2 µM
6. Brc1ccccc1C1SCc2nc3ccccc3n21 (stereo not drawn)    45.1 µM
7. CCCC(=O)OC1CC(n2cc(F)c(=O)[nH]c2=O)OC1COP(=O)(OCC(Cl)(Cl)Cl)OCC(Cl)(Cl)Cl (stereo not drawn)    99.4 µM
8. C=C1C(=O)O[C@H]2[C@H]1CC/C(COC(=O)c1c[nH]c3ccccc13)=C\CC[C@@]1(C)O[C@@H]21    1.33 µM
9. Cc1cn(C2CC(O)C(CO)O2)c(=O)[nH]c1=O (stereo not drawn)    > 5000 µM
10. CCOC(=O)c1ccc(NCC#CCN2CCOCC2)cc1    > 100 µM
11. C=C1NC(=O)C(C(C)CC)NC(=O)C2CSCC(NC(=O)CCC(=O)O)C(=O)NC(Cc3ccccc3)C(=O)NC(C)C(=O)NC(CC(C)CC)C(=O)NC(C(=O)NC(Cc3ccccc3)C(=O)N3CCCC3C(=O)N2)C(C)OC(=O)C(CO)NC(=O)C(C(O)COC)N(C)C(=O)C(C(C)C)NC(=O)C(CC(C)CC)NC1=O (stereo not drawn)    > 6 µM
12. COc1ccc([C@H]2[C@@H](F)C(=O)N2c2cc(OC)c(OC)c(OC)c2)cc1F    > 100 µM
13. O=C1NCCN1/N=C/c1c(Cl)n(-c2ccccc2)c2ccccc12    85.7 µM
14. CCN(CC)CCn1c(=O)c2cccnc2n2c3c(=O)n(C)c(=O)n(C)c3nc12    > 100 µM
15. CCCCCCOc1ccc(C(=O)NOC)cc1    > 100 µM
16. CCOC(=O)c1c(C)nc2c3ccccc3c(C#N)c(C)n12    > 100 µM
17. O=c1[nH]c(Nc2nc3ccccc3[nH]2)nc(O)c1-c1ccccc1    > 100 µM
18. COc1cc(OC)cc(-c2cc(=O)c3c(OC)c(OC)c(OC)c(OC)c3o2)c1    > 100 µM
